Tested on: HUVEC cells
EXPERIMENT_DESCRIPTION: Cell adhesion assay with integrin blocking antibodies
Format: cell-based, human
RECORDED_CONDITIONS: label = plate coating; 10 μg/ml antibody
MEASUREMENT_KIND: inhibition of HUVEC attachment to coated plates by αvβ3 antibody

## Input Look up inhibition of HUVEC attachment to coated plates by αvβ3 antibody: Tumstatin: NC1 domain of the α3 chain of type IV collagen, residues 1-244 (SEQ ID NO:10) (protein, listed as Homo sapiens) GLKGKRGDSGSPATWTTRGFVFTRHSQTTAIPSCPEGTVPLYSGFSFLFVQGNQRAHGQDLGTLGSCLQRFTTMPFLFCNVNDVCNFASRNDYSYWLSTPALMPMNMAPITGRALEPYISRCTVCEGPAIAIAVHSQTTDIPPCPHGWISLWKGFSFIMFTSAGSEGTGQALASPGSCLEEFRASPFLECHGRGTCNYYSNSYSFWLASLNPERMFRKPIPSTVKAGELEKIISRCQVCMKKRH
## Output 80%
